- subject-of-test: human FPR2 (Homo sapiens)
- Sequence (P25090 whole entry): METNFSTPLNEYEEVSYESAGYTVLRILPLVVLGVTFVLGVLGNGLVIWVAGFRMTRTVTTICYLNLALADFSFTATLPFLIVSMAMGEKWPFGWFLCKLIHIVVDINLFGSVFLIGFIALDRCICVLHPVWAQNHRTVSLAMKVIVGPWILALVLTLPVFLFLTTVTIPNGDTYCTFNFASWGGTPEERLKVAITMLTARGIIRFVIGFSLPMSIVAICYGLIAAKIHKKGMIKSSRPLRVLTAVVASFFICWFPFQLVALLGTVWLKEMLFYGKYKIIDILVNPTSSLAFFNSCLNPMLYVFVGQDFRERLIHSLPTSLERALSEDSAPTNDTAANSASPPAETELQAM
- assay-method-text: FPR2 cyclic adenosine monophosphate (cAMP) assay
- test-context: CHO cells overexpressing human FPR2; forskolin 5 μM; inhibition of cAMP production; HTRF; read-out: hFPR2 cAMP2 EC50
- Protocol: FPR2 and FPR1 Cyclic Adenosine Monophosphate (cAMP) Assays. […] The level of intracellular cAMP was determined using the HTRF HiRange cAMP assay reagent kit (Cisbio) according to manufacturer's instruction. […] After a 1-h room temperature incubation, time-resolved fluorescence intensity was measured using the Envision (Perkin-Elmer) at 400 nm excitation and dual emission at 590 nm and 665 nm. […]
Could you please report measured pEC50 for the items listed next?
One number for each entry, as −log10 of the molar value.

For every item below, please supply its pEC50.
1. COc1cc(F)c(-n2cc(C(=O)NCc3cccnc3)nc2NC(=O)c2ccc(OC(F)F)cc2)c(F)c1 [Example 47]
2. COc1cc(F)c(-n2cc(C(=O)N3CCNCC3)nc2NC(=O)c2ccc(OC(F)F)cc2)c(F)c1 [Example 61]
3. COc1cc(F)c(-n2cc(-c3ccc(C#N)cc3)nc2NC(=O)c2ccc(OC(F)F)cc2)c(F)c1 [Example 16]
4. COc1ccc(-c2cn(-c3c(F)cc(OC)cc3F)c(NC(=O)c3ccc(OC(F)F)cc3)n2)cc1 [Example 14]
5. COc1cc(F)c(-n2cc(C3CC4(CNC4)C3)nc2NC(=O)c2ccc(OC(F)F)cc2)c(F)c1 [Example 75]
6. COc1cc(F)c(-n2cc(C(C)C)nc2NC(=O)c2ccc(OC(F)F)cc2)c(F)c1 [Example 70]

Response:
[7.46, 6.89, 7.57, 7.41, 7.64, 7.51]

Respectfully, I request pEC50 for each entry included below.
1. COc1cc(F)c(-n2cc(C(=O)NC3CCC(O)CC3)nc2NC(=O)c2ccc(OC(F)F)cc2)c(F)c1 (stereo not drawn) [Example 49]
2. CCOC(=O)Cc1cn(-c2c(F)cc(OC)cc2F)c(NC(=O)c2ccc(OC(F)F)cc2)n1 [Example 72]
3. COc1ccc(-n2cc(-c3ccc(F)cc3F)nc2NC(=O)c2ccc(OC(F)F)cc2)cc1 [Example 21]
4. COc1cc(F)c(-n2cc(C(=O)N3CCC(CO)C3)nc2NC(=O)c2ccc(OC(F)F)cc2)c(F)c1 (stereo not drawn) [Example 59]

Response:
1: 7.05; 2: 7.66; 3: 7.54; 4: 7.09

I have 5 molecules here; please give me pEC50 for each one.
1. CCOC(=O)c1cc(-c2cn(-c3ccc(OC)cc3)c(NC(=O)c3ccc(OC(F)F)cc3)n2)on1 [Example 29]
2. COc1cc(F)c(-n2cc(C3CC(NS(C)(=O)=O)C3)nc2NC(=O)c2ccc(OC(F)F)cc2)c(F)c1 (stereo not drawn) [Example 83]
3. CCS(=O)(=O)N1CCC(c2cn(-c3c(F)cc(OC)cc3F)c(NC(=O)c3ccc(OC(F)F)cc3)n2)CC1 [Example 65]
4. COc1ccc(-n2cc(C(=O)NCCCO)nc2NC(=O)c2ccc(OC(F)F)cc2)cc1 [Example 46]
5. COc1cc(F)c(-n2cc(C(=O)N3CCC(CO)CC3)nc2NC(=O)c2ccc(OC(F)F)cc2)c(F)c1 [Example 69]

Response:
1. 7.82
2. 8.30
3. 7.09
4. 7.57
5. 7.07
